System: SEM cells
Assay notes: AUC of viability dose-response curve (% viability x log10 dose units); higher = less sensitive
Condition details: HPLM + 10% dialyzed FBS; 48 h

Molecule	AUC of viability dose-response curve
CC[C@H](NC(=O)[C@H](C)NC)C(=O)N1C[C@@H](O)C[C@H]1Cc1c(-c2[nH]c3cc(F)ccc3c2C[C@@H]2C[C@H](O)CN2C(=O)[C@H](CC)NC(=O)[C@H](C)NC)[nH]c2cc(F)ccc12	469
C/C(O)=C(\C#N)C(=O)Nc1cc(Br)ccc1Br	441
OC(=O)C(CC/1=C/C(=O)NC2=CC=CC=C12)NC(=O)C3=CC=C(Cl)C=C3 (configuration not stated)	447
O=C(c1ccc(F)c(F)c1Nc1ccc(I)cc1F)N1CC(O)([C@@H]2CCCCN2)C1	410
C[C@]12CC[C@H]3[C@@H](CCC/4=C/C(=O)CC[C@]34C)[C@@H]1CC[C@@H]2O	467
CN1C(=O)C[C@H](C(=O)N[C@@H](Cc2cnc[nH]2)C(=O)N2CCC[C@H]2C(N)=O)NC1=O	456
COC[C@H](c1ccc(C(F)(F)F)cc1)N1CCN(C2(C)CCN(C(=O)c3c(C)ncnc3C)CC2)C[C@H]1C.O=C(O)/C=C\C(=O)O	445

Taken from the supplement of paper PMC11451515.
